This listing pairs molecules with measured Relative conversion rate compared with L-lysine in %.
Target: lysine oxidase from Pichia pastoris (Komagataella pastoris)
Construct: Purification of the Lysine Oxidase from Pichia pastoris; endogenous in cells; host or cells: Pichia pastoris (enzyme purified from the yeast itself)
Sequence (Q96X16 19-787): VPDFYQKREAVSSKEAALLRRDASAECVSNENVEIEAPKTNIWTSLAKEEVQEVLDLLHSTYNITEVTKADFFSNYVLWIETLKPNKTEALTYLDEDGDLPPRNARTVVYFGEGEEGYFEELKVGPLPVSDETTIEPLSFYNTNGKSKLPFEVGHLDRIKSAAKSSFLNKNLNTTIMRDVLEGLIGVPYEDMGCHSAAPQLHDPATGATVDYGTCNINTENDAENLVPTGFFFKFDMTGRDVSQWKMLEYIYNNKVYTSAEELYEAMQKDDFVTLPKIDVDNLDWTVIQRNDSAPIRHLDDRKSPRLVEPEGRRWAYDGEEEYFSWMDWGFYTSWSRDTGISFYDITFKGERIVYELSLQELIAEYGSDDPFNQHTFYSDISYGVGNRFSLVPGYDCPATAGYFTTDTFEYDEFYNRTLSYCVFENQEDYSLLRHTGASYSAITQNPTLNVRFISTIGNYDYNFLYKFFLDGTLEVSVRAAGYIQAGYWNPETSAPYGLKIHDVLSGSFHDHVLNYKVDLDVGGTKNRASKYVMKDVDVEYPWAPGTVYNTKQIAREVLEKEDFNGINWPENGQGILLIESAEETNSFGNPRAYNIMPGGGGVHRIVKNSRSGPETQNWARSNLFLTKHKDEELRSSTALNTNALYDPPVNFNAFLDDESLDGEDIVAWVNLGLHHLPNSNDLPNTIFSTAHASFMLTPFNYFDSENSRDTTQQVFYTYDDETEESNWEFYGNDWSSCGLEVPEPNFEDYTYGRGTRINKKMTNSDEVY
Experiment: Assays with various substrates: conversion in the presence of lysine oxidase (peroxidase/4-aminoantipyrine/phenol dye, absorption at 500 nm)
Type: biochemical
Conditions: substrate 18.75-1200 μmol/l in water, no reducing agent, L-lysine = 100
Write the value in % as a bare number.

Some molecules with known Relative conversion rate compared with L-lysine in % results, for comparison:
[
  {
    "Molecule": "NCCCCN",
    "Measured Target": "lysine oxidase from Pichia pastoris (Komagataella pastoris)",
    "Endpoint Value": 133
  },
  {
    "Molecule": "NCC(O)CCC(N)C(=O)O [D/L-5-Hydroxylysine]",
    "Measured Target": "lysine oxidase from Pichia pastoris (Komagataella pastoris)",
    "Endpoint Value": 60
  },
  {
    "Molecule": "NCCN",
    "Measured Target": "lysine oxidase from Pichia pastoris (Komagataella pastoris)",
    "Endpoint Value": 84
  },
  {
    "Molecule": "NCCCNCCCCNCCCN",
    "Measured Target": "lysine oxidase from Pichia pastoris (Komagataella pastoris)",
    "Endpoint Value": 185
  },
  {
    "Molecule": "NCCCCCCN",
    "Measured Target": "lysine oxidase from Pichia pastoris (Komagataella pastoris)",
    "Endpoint Value": 180
  },
  {
    "Molecule": "NCCCC[C@@H](N)C(=O)O",
    "Measured Target": "lysine oxidase from Pichia pastoris (Komagataella pastoris)",
    "Endpoint Value": 100
  },
  {
    "Molecule": "NCCCC[C@H](N)C(=O)O",
    "Measured Target": "lysine oxidase from Pichia pastoris (Komagataella pastoris)",
    "Endpoint Value": 100
  },
  {
    "Molecule": "NCc1ccccc1",
    "Measured Target": "lysine oxidase from Pichia pastoris (Komagataella pastoris)",
    "Endpoint Value": 108
  },
  {
    "Molecule": "NCc1cccnc1",
    "Measured Target": "lysine oxidase from Pichia pastoris (Komagataella pastoris)",
    "Endpoint Value": 128
  },
  {
    "Molecule": "CCOC(=O)CN",
    "Measured Target": "lysine oxidase from Pichia pastoris (Komagataella pastoris)",
    "Endpoint Value": 93
  }
]

Given the entry CC(=O)N[C@@H](CCCCN)C(=O)O , report its measured Relative conversion rate compared with L-lysine in %.
120

Could you do the same for NCCCCCCCCN , please?
197

Same thing, different molecule: NCCO
50

Now the molecule CCCCN
63

Further, for NCCCC(N)C(=O)OC(F)F (stereo not drawn) ?
39
